target: CD28 (Homo sapiens, UniProt P10747); test: Flow binding to Jurkat/IL2 reporter cells (CD28); design: host or cells: Jurkat cells expressing an IL-2-luciferase reporter; conditions: Table E23; MFI at 33.3 nM relative to CD80 WT IgV-Fc
For each of the molecules below, state its CD28 Fold change to WT CD80.
# print the numeric value only

Using known records, supply CD28 Fold change to WT CD80 for H18T/A26N/E35D/M47L/V68M/A71G (protein, UniProt P33681 35-288, looked up, variant H18T A26N E35D M47L V68M A71G, Fc fusion) T-lymphocyte activation …: VIHVTKEVKEVATLSCGTNVSVEELNQTRIYWQKDKKMVLTMMSGDLNIWPEYKNRTIFDITNNLSIMILGLRPSDEGTYECVVLKYEKDAFKREHLAEVTLSVKADFPTPSISDFEIPTSNIRRIICSTSGGFPEPHLSWLENGEELNAINTTVSQDPETELYAVSSKLDFNMTTNHSFMCLIKYGHLRVNQTFNWNTTKQEHFPDNLLPSWAITLISVNGIFVICCLTYCFAPRCRERRRNERLRRESVRPV
13.4

Assign CD28 Fold change to WT CD80 to the following record: H18Y/A26P/E35D/M471/V68M/A71G (protein) VIHVTKEVKEVATLSCGYNVSVEELPQTRIYWQKDKKMVLTMMSGDINIWPEYKNRTIFDITNNLSIMILGLRPSDEGTYECVVLKYEKDAFKREHLAEVTLSVKAD
50.2

Give a short answer stating reported CD28 Fold change to WT CD80 for H18C/A26P/E35D/M47L/V68M/A71G (protein, UniProt P33681 35-288, looked up, variant H18C A26P E35D M47L V68M A71G) T-lymphocyte activation …: VIHVTKEVKEVATLSCGCNVSVEELPQTRIYWQKDKKMVLTMMSGDLNIWPEYKNRTIFDITNNLSIMILGLRPSDEGTYECVVLKYEKDAFKREHLAEVTLSVKADFPTPSISDFEIPTSNIRRIICSTSGGFPEPHLSWLENGEELNAINTTVSQDPETELYAVSSKLDFNMTTNHSFMCLIKYGHLRVNQTFNWNTTKQEHFPDNLLPSWAITLISVNGIFVICCLTYCFAPRCRERRRNERLRRESVRPV .
18.7
